- Test system: carbachol-induced hypersialosis
- test name: Action against carbachol-induced hypersialosis (salivation, oral)
- Type: in vivo, SD male rats
- experimental context: Rattus norvegicus; SD male rats, oral, 30 minutes before carbachol 0.1 mg/kg i.p., saliva weight over 10 minutes; read-out: Salivation inhibitory action ID50
- Experimental: Action against carbachol-induced hypersialosis Testing method A test compound was orally administered to each of SD male rats weighing 100 to 150 g. Thirty minutes later, 0.1 mg/kg of carbachol was intraperitoneally administered. Immediately after the administration of carbachol, the rat was fixed by hands under non-anesthesia and under this condition, the saliva was wiped off with a cotton ball for 10 minutes. The weight of the saliva so obtained was measured.
Where a name gives a salt, the structure may show the parent alone.
Collected ED50 values appear next to each entry.
A number alone suffices; assume mg/kg.

Check out these entries, answers already filled in.
1. CCCCOC(C(=O)NC1CCN(Cc2ccccc2)CC1)(c1ccccc1)C(C)C (stereo not shown) [Compound No. 4] :: 56.6
2. CCCOC(C(=O)OC1CCN(C)CC1)(c1ccccc1)c1ccccc1 [Propiverine hydrochloride, reference compound] :: 9.2
3. CCCOC(C(=O)NC1CCN(Cc2ccccc2)CC1)(c1ccccc1)C(C)C (stereo not shown) [compound 3] :: 33.9

Query string: Give the reported value of ED50 for this record: CCCOC(C(=O)NC1CCN(Cc2ccccc2)CC1)(c1ccccc1)C1CC1 (stereo not shown) [compound 12]
Result string: 22.5

// provenance: patent US6060485A
